# target desc: recombinant human LTA4 hydrolase (rhLTA4H) (Homo sapiens)
# Construct: made in house; host or cells: Spodoptera frugiperda (Sf-9) cells, baculovirus (pFastBac1)
# Sequence (P09960 1-611): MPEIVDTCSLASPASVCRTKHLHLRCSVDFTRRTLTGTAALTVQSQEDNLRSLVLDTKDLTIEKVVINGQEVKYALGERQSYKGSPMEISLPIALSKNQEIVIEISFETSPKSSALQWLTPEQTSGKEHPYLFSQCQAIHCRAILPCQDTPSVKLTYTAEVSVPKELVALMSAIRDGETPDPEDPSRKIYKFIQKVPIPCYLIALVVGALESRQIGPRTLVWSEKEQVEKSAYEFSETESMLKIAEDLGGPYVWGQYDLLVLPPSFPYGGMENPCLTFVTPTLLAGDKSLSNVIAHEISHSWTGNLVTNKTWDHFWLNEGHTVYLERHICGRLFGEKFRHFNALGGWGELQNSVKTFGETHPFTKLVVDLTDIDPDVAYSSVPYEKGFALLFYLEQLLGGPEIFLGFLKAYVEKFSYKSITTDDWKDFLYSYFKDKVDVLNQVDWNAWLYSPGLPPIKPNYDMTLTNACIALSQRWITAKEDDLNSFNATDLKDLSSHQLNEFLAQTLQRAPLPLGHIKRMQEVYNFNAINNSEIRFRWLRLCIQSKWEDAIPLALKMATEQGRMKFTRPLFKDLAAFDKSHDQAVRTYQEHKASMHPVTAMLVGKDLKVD
# protocol notes: Recombinant human LTA4 hydrolase assay for LTA4 hydrolase inhibitor activity
# Assay type: biochemical
# test settings: rhLTA4H, LTB4 by immunoassay; single determination or average of two or more; mark after value = form tested: ′ free base, ″ hydrochloride, ^ formate; read-out: IC50
Where a name gives a salt, the structure may show the parent alone.
Exercise: for every item that follows, state its recorded IC50.

The following compounds have reported results that may help.
| compound | result |
| --- | --- |
| c1cnc2nc(Oc3ccc4c(CN5CCCCC5)coc4c3)sc2c1 [Example 212] | 4 nM |
| Clc1ccc2sc3c(c2c1)CCN(Cc1c[nH]c2cc(Oc4nc5ncccc5s4)ccc12)C3 [Example 37, formate] | 8 nM |
| c1cnc2nc(Oc3ccc4cc(CN5C[C@@H]6C[C@H]5CO6)oc4c3)sc2c1 [Example 109, formate] | 186 nM |
| O=C1C[C@@H](O)CN1C1CCN(Cc2c[nH]c3cc(Oc4nc5ccccc5s4)ccc23)CC1 [Example 44] | 6 nM |
| O=C(C1CCN(Cc2c[nH]c3cc(Oc4nc5ccccc5s4)ccc23)CC1)N1CCOCC1 [Example 25] | 2 nM |

# batch size: 3; output IC50 per entry
1. c1ccc2oc(Oc3ccc4c(CN5CCCCC5)c[nH]c4c3)nc2c1 [Example 15]
2. c1ccc2sc(Oc3ccc4[nH]cc(CN5CCOCC5)c4c3)nc2c1 [Example 11]
3. Cc1ccnc2nc(Oc3ccc4c(CN5CCOCC5)c[nH]c4c3)sc12 [Example 57]

Response:
1. 13 nM
2. 1400 nM
3. 93 nM

// provenance: patent US8399465B2
